reported.endpoint: melting point

Use the examples below as a reference point.
Can you share its melting point? I mean this molecule: `CNc1nc(S(=O)(=O)Nc2c(Cl)cccc2Cl)n[nH]1`
285 to 287 °C

Try `COC(=O)Cn1c(C(=O)Nc2nc(-c3cc(Br)c(OC)cc3OC)c(CCC3CCCCC3)s2)cc2ccccc21` next.
110 to 114 °C

Try `CCn1c2ccccc2c2oc(C#N)cc(=O)c21` next.
184 to 185 °C

Try `O=C(OCCO)c1cc(-c2ccc(Cl)cc2)c[nH]1` next.
128 to 130 °C

Try `Cc1c(NC(=O)c2ccc(OC[C@@H]3CCCO3)cc2)ccc2c1cc(CN1CCC(C)(O)CC1)n2C` next.
210 °C

Others:
Can you share its melting point? I mean this molecule: CC1C(C(N)=O)CC2CC1C2(C)C (single isomer, unassigned; (+))
131 °C

Try `CC1(C)CC(=O)C(C(=O)c2cccc3nnsc23)C(=O)C1` next.
168 to 170 °C

Try `CC(=O)c1c(F)cc2c(=O)c(C(=O)O)cn(CCF)c2c1F` next.
215 to 216 °C

====

Parameter: melting point. Scope: all listed entries.

Can you share its melting point? I mean this compound: `COc1ccc2c(c1)CCN=C2C`
206 to 207 °C

Try `Cc1cc(OCc2ccccc2)c(C)cc1CO` next.
58 to 59 °C

Try `CC(C)(C)NNC(=S)c1ccccc1` next.
165 to 168 °C

Try `Fc1ccc(Cn2c(NC3CCN(CCNCCc4c[nH]c5ccccc45)CC3)nc3ccccc32)cc1` next.
170 °C

Try NN1CN=Cc2c(NC3OC(CO)C(O)C3O)ncnc21 (stereo not given) next.
209 to 214 °C

Others:
Can you share its melting point? I mean this compound: `COc1ccc(C(=O)c2c(F)cccc2F)cc1OC`
100 to 101 °C

====

reported.endpoint: melting point

Can you share its melting point? I mean this molecule: CN(CC#Cc1cc(CN2CCOCC2)cc2c(=O)c(C(=O)NCc3ccc(Cl)cc3)cn(C)c12)CC(O)CO (stereo not given)
140 to 142 °C

Try `CC(C)c1cc(-c2ccc(F)cc2)nc(O)n1` next.
215 to 217 °C

Try `Nc1nc(-c2cc(Cl)ccc2Cl)nc(N2CCNC(=O)C2)n1` next.
> 275 °C

Try `Nc1ccc(C(=O)c2cc(F)ccc2F)cc1` next.
101 to 103 °C

Try O=C1OCC2C3OC(C4CCCCC43)C12 (stereo not given) next.
90 to 91 °C

Others:
Can you share its melting point? I mean this molecule: `Cc1cc2c(cc1C(F)(F)F)N(Cc1cccc(C(=O)O)c1)CCC[C@@H]2N(Cc1cc(C(F)(F)F)cc(C(F)(F)F)c1)c1nnn(C)n1`
83 to 86 °C

Try `Nc1ccc2ccc(Oc3ccccc3F)nc2n1` next.
206 °C

Try `CC(C)[C@H](NCc1ccc(Br)cc1)C(=O)O` next.
239 to 241 °C

Try `COc1cc(Nc2c(C#N)cnc3cc(/C=C/CCO[Si](C)(C)C(C)(C)C)c(OC)cc23)c(Cl)cc1Cl` next.
97 to 99 °C

Try `CCOC(=O)c1c(SCc2ccc(OC)cc2)[nH]c2cc(Cl)c(F)cc2c1=O` next.
142 °C

====

Parameter: melting point. Scope: all listed entries.

Can you share its melting point? I mean this compound: `CCCN1CCc2[nH]c3ccc4sccc4c3c2C1`
143 to 144 °C

Try `O=Cc1coc2cc(OC(=O)OCC(Cl)(Cl)Cl)c(OC(=O)OCC(Cl)(Cl)Cl)cc2c1=O` next.
153 to 155 °C

Try `Cc1cc(Oc2ccc(C#N)cc2C(F)(F)F)n[nH]1` next.
123 to 125 °C

Others:
Can you share its melting point? I mean this compound: `O=C(Nc1ccc(-n2nc(C(F)(F)F)cc2C(F)(F)F)c(C(F)(F)F)c1)c1ccc(Cl)cc1`
65 to 67 °C

Try `CC(C)(C)OC(=O)Cn1c(=O)n(S(=O)(=O)c2ccc(Cl)cc2)c(=O)c2ccc(Cl)cc21` next.
188 to 190 °C

Try CCCc1c(OCCCOc2ccc(-c3cocn3)c(OC)c2CCC)ccc2c1OC(C(=O)O)CC2 (stereo not given) next.
136 to 139 °C

Try `COC(=O)C=Cc1ccc2[nH]c(C)cc2c1` next.
172 to 173 °C

Try `CCOCn1c(C(=O)c2cc(C)cc(C)c2)c(CC)c(=O)[nH]c1=O` next.
184 °C

====

Parameter: melting point. Scope: all listed entries.

Use the examples below as a reference point.
Can you share its melting point? I mean this compound: `CC(C)(CO)NS(=O)(=O)c1cc([N+](=O)[O-])c(Cl)s1`
113 °C

Try `COc1ccc(COc2ccc(CC(=O)O)cc2Cl)cc1Cl` next.
150 to 151 °C

Try `O=Cc1c(Cl)n(CC2CC2)c2ccccc12` next.
108 to 109 °C

Try `CCn1c2ccc(C=O)cc2c2cc(C=C(c3ccccc3)c3ccccc3)ccc21` next.
166 to 167 °C

Try `Cc1nn(-c2c(Cl)cc(C(F)(F)F)cc2Cl)c(Cl)c1C=O` next.
201 °C

Kindly review the next compound as well.
Can you share its melting point? I mean this compound: `O=C1N=Nc2ccncc21`
> 350 °C

====

reported.endpoint: melting point

Can you share its melting point? I mean this molecule: CCCCCCCCCCCCCCCCCC(=O)Nc1ccn(C2OC(CO)C(O)C2O)c(=O)n1 (stereo unspecified)
147 to 151 °C

Try `CCOc1cc(NC(=O)NS(=O)(=O)c2ccc(C)cc2)ccn1` next.
146 to 148 °C

Try `Cc1nc(NC(=O)Cc2ccccc2)sc1C(=O)NCc1ccccc1` next.
63 to 65 °C

Try `Cc1c(NC(=O)c2ccc(-c3ccc(Cl)s3)cc2)ccc2cc(CN3CCCC3)cnc12` next.
210 to 211 °C

Try `Cc1oc(-c2ccco2)nc1COc1ccc(CON=C(CCCCCCC(=O)O)c2ccccc2)cc1` next.
75 to 77 °C

Try `Cn1cnc(COc2nc3c(-c4ccccc4F)nncn3c2-c2ccccc2)n1` next.
186 °C

Try `C=CCOC(=O)c1ccc(N)cc1O` next.
58 to 59 °C

Try `COc1ccc2cc(N)ccc2c1` next.
133 to 136 °C

Others:
Can you share its melting point? I mean this molecule: COc1cc2c(c(Cl)c1Cl)C(=O)C(c1ccc(Br)cc1)C2 (stereo unspecified)
202 to 203 °C

Try `COc1cc(-c2ncn(C)c2-c2scc(OC)c2OC)cc(OC)c1OC` next.
142 to 143 °C

====

Parameter: melting point. Scope: all listed entries.

Can you share its melting point? I mean this compound: `O=C1c2cccc(Oc3ccc(Cl)cc3)c2C(=O)N1Cc1cccnc1`
193 to 194 °C

Others:
Can you share its melting point? I mean this compound: `O=[N+]([O-])c1cccnc1Nc1ccc2c(c1)OCO2`
146 to 148 °C

Try `Nn1c(-c2cncc(Cl)c2)cc2ccccc21` next.
154 to 156 °C

Try COC(=O)CC(c1ccc(OC)c(OC)c1)N1C(=O)c2ccccc2C1=O (stereo not given) next.
114 to 116 °C

Try Cc1ccnc(N2CCN(C(=O)CCCC3Cn4c(-c5cc(C)c(O)c(C)c5)c(C)c5cccc(c54)O3)CC2)c1 (stereo not given) next.
112 °C

====

Parameter: melting point. Scope: all listed entries.

Can you share its melting point? I mean this molecule: `Cc1oc(-c2ccccc2)nc1COc1ccc(Sc2nc(-c3ccccc3)c(CCC(=O)O)o2)cc1`
136 to 137 °C

Try `CCCCCCCCCCCCc1ccc2cccnc2c1O` next.
88.5 to 90 °C

Try `Cc1ccc(-c2nn(CCO)c(=O)c(-c3ccccc3)c2-c2ccc(C)cc2)cc1` next.
192 to 194 °C

Try Cc1ccc(S(=O)(=O)OCCC2CCc3ccccc3O2)cc1 (stereo not given) next.
57 to 59 °C

Try `COc1cc(Nc2c(C#N)cnc3cc(-c4cnc(CN5CCN(C)CC5)n4C)sc23)c(Cl)cc1Cl` next.
234 to 235 °C

Try `CC(C)(C)OC(=O)N1C(=O)c2ccccc2C1=O` next.
90 to 92 °C

Try `COc1cc(C=C(C=O)C(C=O)=Cc2ccc(OC(=O)c3ccccc3)c(OC)c2)ccc1OC(=O)c1ccccc1` next.
107 to 110 °C

Try `O=C(NCCCCOc1ccc(-n2ccnc2)cc1)Nc1ccc(Br)cc1` next.
157 to 159 °C

Try `CCOc1cc(OCC)c(C=[N+]([O-])C2CCCCC2)c(OCC)c1` next.
146 °C

Try O=C1c2ccc(C(F)(F)F)cc2CCC1CN1CCC2(CC1)C(=O)NCN2c1ccccc1 (stereo not given) next.
159 to 162 °C

Hello, the source for this data is a melting point compilation (Tetko et al.; mined from patent text by program, amines drawn as free bases though some values may be those of a salt), in case you need it.
